Target: T1, 4H331-bH
T1 chain: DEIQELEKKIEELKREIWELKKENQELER
Assay: two-hybrid library CCNG1;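 also: natural log of median RNA to DNA barcode read ratio; higher means stronger binding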
Quantity Kind: interaction score

Known results for binders:
>>> print(df.to_string())
                                     binder  quantitative_result
0  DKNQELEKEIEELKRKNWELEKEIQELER [4H3185-bH]               -0.701
1  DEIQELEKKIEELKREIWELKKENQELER [4H331-bH]                 1.45
2  DKNQELEKEIEELKRKNWELEKKIQELER [4H3189-bH]               -0.227
3  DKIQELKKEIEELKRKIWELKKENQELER [4H2667-bH]                 1.71
4  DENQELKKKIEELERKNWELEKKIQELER [4H1845-bH]                 -1.2

a: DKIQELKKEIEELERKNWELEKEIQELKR [4H2610-bH]
b: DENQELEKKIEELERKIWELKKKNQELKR [4H1328-bH]
Qu. Returns: the label, a or b , whose recorded interaction score is the lower number. Response format: the label of the selected entry.
Ans. a
(a: -0.139, b: 1.28)

Measured values drawn from paper PMC10397247 for this set.
